Assay: PAMPA
Type: in vitro ADME
Conditions: 500 μM donor, 20 h
Outcome measure: PAMPA (% flux)

O=C(O)c1ccc(NC(=O)c2c(-c3c(Cl)cccc3C(F)(F)F)noc2-c2ccccc2)cc1 [compound 8]: 60.1 % flux
O=C(O)c1ccc(-c2nn(C(=O)c3c(Cl)cccc3C(F)(F)F)c3ccccc23)cc1 [compound 3, MRL-871, reference compound]: 23.7 % flux
O=C(O)c1ccc(NCc2c(-c3c(Cl)cccc3C(F)(F)F)noc2-c2ccco2)cc1 [compound 23]: 50.4 % flux
O=C(O)c1ccc(NCc2c(-c3c(Cl)cccc3C(F)(F)F)noc2-c2cc[nH]c2)cc1 [compound 25]: 33.6 % flux
